Target: T1, Human CD19-his protein (human, UniProt P15391 20-291)
T1 construct: bought protein; also called recombinant human CD19-His; CD19 full-length protein; not shown: His tag
T1 sequence (looked up): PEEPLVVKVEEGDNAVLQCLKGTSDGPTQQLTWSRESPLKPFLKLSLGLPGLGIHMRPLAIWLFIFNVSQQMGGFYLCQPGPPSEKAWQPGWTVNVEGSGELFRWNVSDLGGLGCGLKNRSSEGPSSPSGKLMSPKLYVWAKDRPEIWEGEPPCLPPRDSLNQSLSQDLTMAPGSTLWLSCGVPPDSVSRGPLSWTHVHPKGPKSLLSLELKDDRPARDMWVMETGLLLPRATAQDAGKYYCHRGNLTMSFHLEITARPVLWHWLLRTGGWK
Experiment: SPR Biacore, Ab captured on Protein A, CD19-His analyte
For each of the binders below, state its koff.
One number for each entry, in s⁻¹.

{"columns": ["BINDER", "koff (s⁻¹)"],
 "data": [
  ["F4.37.6 (antibody, human IgG1, V domains shown, human-murine chimeric antibody, human IgG1 constant) VH: QVQLQQSGAELARPGASVKLSCKASGYTFTSFWMQWLKQRPGQGLEWIGTIYPGDGDTRYTQKFKGKATLTADKSSNTAYMQLSSLASEDSAVYYCARGALSNYGGFAYWGQGTLVTVSA VL: NIVLTQSPASLAVSLGQRATISCRASESVDSYGHSFMHWYQQKPGQPPKLLIYLASNLESGVPARFSGSGSRTDFTLTIDPVEADDAATYYCQQNNEDPWTFGGGTKLEIK", 0.00327],
  ["F4.107.12 (antibody, human IgG1, V domains shown, human-murine chimeric antibody, human IgG1 constant) VH: EVQLQQSGPELVKPGASVKMSCKASGYTFTSYVLHWVRQKPGQGLEWIGYFNPYNDGTEYNEKFKGKAILTSDKSSSTAYMELNSLTSEDSAVYYCVGGTYYYGSSYPFAYWGQGTLVTVST VL: DVVMTQISLSLPVSLGDQASISCRSSQSLIHSNGNTYLQWYLQKPGQSPKLLIYKVSNRLSGVPDRFSGSGSGTDFTLKISRVEAEDLGVYFCSQSTHVPYTFGGGTKLEIK", 0.000217]
]}

Now for the binder whose koff we want.
What koff value was documented for this binder, F4.276.12 (antibody, human IgG1, V domains shown, human-murine chimeric antibody, human IgG1 constant) VH: EIQLQQSGPELVKPGASVKVSCKASGYAFSAYNMYWVKQSHGKSLEWIGYIDPYNGGTNYNQKFKGKATLTVDKSSSTAYMHLNSLTSEDSAVYYCARDGYEVTYWGQGTLVTVSA VL: QIVLTQSPALMSASLGEEITLTCSASSSVTYMHWSQQKSGTSPRLLIYSTSNLASGVPSRFSGSGSGTFYSLTISSVEAEDAADYYCHQWSSYPWTFGGGTKLEIK ?
0.00081
